Reported maximum pain threshold following administration (mechanical stimulation) by item:
Tested on: hyperalgesia model induced by complete ligation of the L5/L6 spinal nerves
Experiment: Mechanical stimulation test (Dynamic Plantar Aesthesiometer), left plantar pain threshold in hyperalgesia model
Format: in vivo, rats
Conditions: 30 mg/kg intraperitoneal; measured 20, 40, 60 min after administration; male rats

C=CCN1CC[C@]23c4c5ccc(O)c4O[C@H]2C(=O)CC[C@@]3(O)[C@H]1C5; 10.4 g
O=C1CC[C@@]2(O)[C@H]3Cc4ccc(O)c5c4[C@@]2(CCN3CC2CC2)[C@H]1O5 [naltrexone]; 10.1 g
C=CCN1CC[C@]23c4c5ccc(O)c4O[C@H]2/C(=N/N=C2\CC[C@@]4(O)[C@H]6Cc7ccc(O)c8c7[C@@]4(CCN6CC=C)[C@H]2O8)CC[C@@]3(O)[C@H]1C5; 14.5 g

Okay, now this molecule:
Look up maximum pain threshold following administration (mechanical stimulation): "Oc1ccc2c3c1O[C@H]1c4[nH]c5ccccc5c4C[C@@]4(O)[C@@H](C2)N(CC2CC2)CC[C@]314" 14.1 g
